assay: Stability in human hepatocytes; assay type: in vitro ADME; conditions: t1/2, Human Hepatocytes, Diastereoisomer A
Recorded measurements of half-life at 5 µM, one per entry
Just the number in min, nothing appended.

>>> recorded_value("COC(=O)CCNC(=O)[C@@H]1OP(=O)(OCOC(=O)NCCSC(=O)C(C)(C)C)OCC1(C)C (stereo partly drawn) [2-143]")
25.2
>>> recorded_value("COC(=O)CCNC(=O)[C@@H]1OP(=O)(N[C@H](C(=O)OC(C)(C)C)C2CCCCC2)OCC1(C)C (stereo partly drawn) [compound 14]")
17.4

Exercise: Report half-life at 5 µM for CC1(C)COP(=O)(O)O[C@H]1C(=O)NCCC(=O)O [compound 108]
Solution: 15

Exercise: Assign half-life at 5 µM to the following record: COC(=O)CCNC(=O)[C@@H]1OP(=O)(N[C@H](C)C(=O)OCCc2ccccc2)OCC1(C)C (stereo partly drawn) [compound 26]
Solution: 18.6

Exercise: Note down half-life at 5 µM recorded for COC(=O)CCNC(=O)[C@@H]1OP(=O)(OCOC(=O)c2scnc2C)OCC1(C)C (stereo partly drawn) [Compound No. 2-139]
Solution: 30.6

Exercise: State, in one line, measured half-life at 5 µM of COC(=O)[C@H](C)NP1(=O)OCC(C)(C)[C@H](C(=O)NCCC(=O)OCc2ccncc2)O1 (stereo partly drawn) [compound 20]
Solution: 142

Exercise: Complete the entry with half-life at 5 µM for COC(=O)CCNC(=O)[C@@H]1O[P@](=O)(OCOC(=O)NCCOC(=O)[C@@H](NC(=O)OCc2ccccc2)C(C)C)OCC1(C)C (single isomer, unassigned) [2-161]
Solution: 25.8

---

Quick reference: half-life of the listed items.
assay: physchem; settings: buffer, pH 7.5, t1/2 (h) Diastereoisomer A, phosphate buffered saline, 10 mM phosphate buffer pH 7.5, 37° C.; Diastereoisomer A = upfield shift in the 31P NMR

>>> recorded_value("COC(=O)CCNC(=O)[C@@H]1O[P@@](=O)(NCc2ccccc2)OCC1(C)C [Compound No. 115]")
"> 60 h"
>>> recorded_value("COC(=O)CCNC(=O)[C@@H]1OP(=O)(NCCN2CCCC2)OCC1(C)C (stereo partly shown) [compound 109]")
"48 h"

Exercise: Give the reported value of half-life for this record: CCC(CC)COC(=O)[C@H](C)NP1(=O)OCC(C)(C)[C@H](C(=O)NCCC(=O)OC)O1 (stereo partly shown) [compound 7]
Solution: > 40 h

Exercise: Please look at this compound and report its half-life: COC(=O)CCNC(=O)[C@@H]1OP(=O)(NCC2CCCO2)OCC1(C)C (stereo partly shown) [compound 116]
Solution: > 40 h

---

Listing of entries alongside the reported half-life at 1 mM.
test: Chemical stability in aqueous solution (phosphate buffered saline, NMR); details: pH 7.5, t1/2 (h) Diastereoisomer B, 10 mM phosphate buffer pH 7.5, 37° C., Diastereoisomer B

Below: 5 compounds and their reported half-life at 1 mM.
>>> recorded_value("COC(=O)CCNC(=O)[C@@H]1OP(=O)(N[C@@H](C)C(=O)OCc2ccccc2)OCC1(C)C (stereo partly drawn)")
"> 3600 min"
>>> recorded_value("COC(=O)CCNC(=O)[C@@H]1OP(=O)(OCCCOCc2ccccc2)OCC1(C)C (stereo partly drawn)")
"> 4800 min"
>>> recorded_value("COC(=O)CCNC(=O)[C@@H]1OP(=O)(OCOC(=O)c2ccccc2)OCC1(C)C (stereo partly drawn)")
"780 min"
>>> recorded_value("COC(=O)CCNC(=O)[C@@H]1OP(=O)(N[C@@H](C)C(=O)OCc2cc(C)cc(C)c2)OCC1(C)C (stereo partly drawn)")
"> 4800 min"
>>> recorded_value("COC(=O)[C@H](C)NP1(=O)OCC(C)(C)[C@H](C(=O)NCCC(=O)OCc2ccncc2)O1 (stereo partly drawn)")
"> 4800 min"

Exercise: Entry COC(=O)[C@H](C)NP1(=O)OCC(C)(C)[C@H](C(=O)NCCC(=O)OCCN2CCCC2)O1 (stereo partly drawn) needs its half-life at 1 mM filled in; supply it.
Solution: 222 min

Exercise: Look up and state reported half-life at 1 mM for COC(=O)CCNC(=O)[C@@H]1OP(=O)(OCOC(=O)C(C)(C)C)OCC1(C)C (stereo partly drawn)
Solution: 432 min

Exercise: Please give the documented half-life at 1 mM of COC(=O)CCNC(=O)[C@@H]1OP(=O)(OCCCN2CCOCC2)OCC1(C)C (stereo partly drawn)
Solution: 306 min

Exercise: Find the measured half-life at 1 mM of COC(=O)CCNC(=O)[C@H](O)C(C)(C)COP1(=O)OCC(C)(C)[C@H](C(=O)NCCC(=O)OC)O1 (stereo partly drawn) and report it.
Solution: 360 min

---

assay: Chemical stability in aqueous solution (phosphate buffered saline, NMR); settings: pH 7.5
PROPERTY_MEASURED: half-life at 1 mM

Exercise: Note down half-life at 1 mM recorded for COC(=O)CCNC(=O)[C@@H]1O[P@@](OCCc2ccccc2)OCC1(C)C
Solution: > 80 h

---

test: Stability in human hepatocytes; type: in vitro ADME; conditions: t1/2, Human Hepatocytes, Diastereoisomer B
Each entry below carries its reported half-life at 5 µM.

See these solved cases before continuing.
>>> recorded_value("COC(=O)CCNC(=O)[C@@H]1OP(=O)(OCOC(=O)NCCSC(=O)C(C)(C)C)OCC1(C)C (stereo partly shown) [2-143]")
"19.2 min"
>>> recorded_value("COC(=O)CCNC(=O)[C@@H]1OP(=O)(OCCSC(=O)C(C)(C)C)OCC1(C)C (stereo partly shown) [Compound No. 2-133]")
"< 15 min"
>>> recorded_value("COC(=O)CCNC(=O)[C@@H]1OP(=O)(OCOC(=O)c2ccccc2)OCC1(C)C (stereo partly shown) [Compound No. 64]")
"< 15 min"
>>> recorded_value("COC(=O)CCNC(=O)[C@@H]1OP(=O)(N[C@H](C(=O)OCc2ccccc2)C(C)C)OCC1(C)C (stereo partly shown) [compound 13]")
"< 15 min"
>>> recorded_value("COC(=O)[C@H](C)NP1(=O)OCC(C)(C)[C@H](C(=O)NCCC(=O)OCCN2CCCC2)O1 (stereo partly shown) [compound 19]")
"69.6 min"

Exercise: State, in one line, measured half-life at 5 µM of COC(=O)CCNC(=O)[C@@H]1OP(=O)(OCOC(C)=O)OCC1(C)C (stereo partly shown) [Compound No. 68]
Solution: < 15 min

Exercise: Tell us which half-life at 5 µM value is on record for CC(C)(C)C(=O)OCOP1(=O)OCC(C)(C)[C@H](C(=O)NCCC(=O)OCc2ccncc2)O1 (stereo in doubt) [Compound No. 71]
Solution: < 15 min

Exercise: Provide one value: measured half-life at 5 µM of COC(=O)CCNC(=O)[C@@H]1OP(=O)(OC(C)OC(=O)c2ccccc2)OCC1(C)C (stereo partly shown) [compound 98]
Solution: < 15 min

Exercise: Look up and report measured half-life at 5 µM for this entry: COC(=O)CCNC(=O)[C@@H]1OP(=O)(N[C@@H](C)C(=O)OCc2ccccc2)OCC1(C)C (stereo partly shown) [Compound No. 11]
Solution: < 15 min

Exercise: Indicate its recorded half-life at 5 µM; the molecule in question is COC(=O)CCNC(=O)[C@@H]1OP(=O)(OCOC(=O)c2ccns2)OCC1(C)C (stereo partly shown) [Compound No. 2-140]
Solution: < 15 min

---

test: Stability in mouse hepatocytes; type: in vitro ADME; conditions: Diastereoisomer A (upfield shift in 31P NMR), 5 μM, 1 million cells/ml, 37° C., mouse hepatocytes, read-out: t1/2, Mouse Hepatocytes, Diastereoisomer A (converted)
compounds and their reported half-life at 5 µM
Note: unit min is implicit; provide only the numeric part.

Known results for compounds:
>>> recorded_value("COC(=O)CCNC(=O)[C@@H]1OP(=O)(N[C@@H](C)C(=O)OC)OCC1(C)C (stereo partly shown)")
22.8
>>> recorded_value("COC(=O)CCNC(=O)[C@@H]1OP(=O)(NCCc2ccncc2)OCC1(C)C (stereo partly shown)")
28.8

Next item in the queue.
Exercise: Give half-life at 5 µM for the following compound: COC(=O)CCNC(=O)[C@@H]1OP(=O)(N[C@H](C)C(=O)OC)OCC1(C)C (stereo partly shown)
Solution: 43.2

---

assay: Stability in human plasma; format: in vitro ADME; details: human, plasma, Diastereoisomer A (upfield shift in 31P NMR), 37° C., read-out: t1/2, Human Plasma, Diastereoisomer A (converted)
PROPERTY_MEASURED: half-life at 3 µM

Worked examples follow.
>>> recorded_value("COC(=O)CCNC(=O)[C@@H]1OP(=O)(OCOC(=O)OC(C)(C)C)OCC1(C)C (some centres unmarked)")
"42.6 min"
>>> recorded_value("C[C@H](NP1(=O)OCC(C)(C)[C@H](C(=O)NCCC(=O)OCc2ccncc2)O1)C(=O)OCCc1ccccc1 (some centres unmarked)")
"> 60 min"
>>> recorded_value("CN1CCCC(OC(=O)CCNC(=O)[C@@H]2OP(=O)(OCOC(=O)C(C)(C)C)OCC2(C)C)C1 (some centres unmarked)")
"39.6 min"

Exercise: Determine its reported half-life at 3 µM: C[C@H](NP1(=O)OCC(C)(C)[C@H](C(=O)NCCC(=O)OC2Cc3ccccc3C2)O1)C(=O)OCCc1ccccc1 (some centres unmarked)
Solution: < 9.6 min

Exercise: For the molecule COC(=O)CCNC(=O)[C@@H]1OP(=O)(N[C@H](C(=O)OC(C)(C)C)C2CCCCC2)OCC1(C)C (some centres unmarked) , give its reported half-life at 3 µM.
Solution: > 60 min
